assay: Half life in CD1 mouse plasma at 10 mg/kg, iv by LC-MS/MS analysis; type: ADME, organism-based; settings: CD1, mouse, plasma
Examples of compounds with documented half-life follow.
Just the number in min, nothing appended.

compound="O=C(NCCCCc1ccccc1)NC1CCC(O)CC1 (configuration not stated)" readout_value=69

Please look at the following compound next.
Entry under review: CC1CC(O)CCC1NC(=O)NCCCCc1ccccc1 (configuration not stated) . Reported half-life? 38.4

====

experiment: Half life in mouse liver microsomes at 1 uM by LC-MS/MS analysis; type: ADME, Microsome; conditions: microsomes, 1 µM
compounds and their reported t1/2
Please respond with the number in h and leave the unit unwritten.

For orientation, consider the following solved cases.
compound="CC1CCCCC1NC(=O)NCCSc1nnc(C2CC2)n1-c1ccccc1 (stereo unspecified)" measurement_label=t1/2 reading_unit=h readout_value=0.017
compound="O=C(CCCCCc1cccnc1)NC1CCC(O)CC1 (stereo unspecified)" measurement_label=t1/2 reading_unit=h readout_value=2.088
compound="CC1CCCCC1NC(=O)NCCCc1nnc(-c2ccccc2)n1C (stereo unspecified)" measurement_label=t1/2 reading_unit=h readout_value=0.1

Please turn your attention to the following entry.
Look up t1/2 for this compound: CC1CC(O)CCC1NC(=O)NCCCCc1ccccc1 (stereo unspecified) 0.403

Ref: ChEMBL document CHEMBL4616675
